Target protein (sequence): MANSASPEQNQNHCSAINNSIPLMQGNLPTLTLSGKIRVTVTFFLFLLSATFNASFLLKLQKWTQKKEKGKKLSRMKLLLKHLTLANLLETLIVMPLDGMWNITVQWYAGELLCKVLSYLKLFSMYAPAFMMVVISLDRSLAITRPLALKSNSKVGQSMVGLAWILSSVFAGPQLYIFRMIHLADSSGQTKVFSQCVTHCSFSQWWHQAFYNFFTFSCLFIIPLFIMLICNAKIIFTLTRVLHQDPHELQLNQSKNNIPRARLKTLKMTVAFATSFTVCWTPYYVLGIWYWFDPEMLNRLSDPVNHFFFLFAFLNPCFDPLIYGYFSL
Could you please report measured IC50 for the items listed next?

These recorded examples may help you get a feel for the data.
# smiles representation, IC50
data = [
    ("COc1ccc(C(C)=O)cc1CSc1nc2cc(NC(=O)C3CC3)ccc2n1C(C)C", "260 nM"),
    ("CCCn1c(SCc2cc([N+](=O)[O-])ccc2OC)nc2cc(NC(=O)NC(C)(C)C)cc(C(=O)NCc3cccnc3)c21", "69 nM"),
    ("COc1ccccc1CSc1nc2cc(NC(=O)C3CC3)ccc2n1C(C)C", "2100 nM"),
    ("COc1ccc([N+](=O)[O-])cc1CSc1nc2cc(NC(=O)NC(C)C)ccc2n1C(C)C", "600 nM"),
    ("COC(=O)c1ccc(OC)c(CSc2nc3cc(NC(=O)C4CC4)ccc3n2C(C)C)c1", "980 nM"),
    ("CCCn1c(SCc2cc([N+](=O)[O-])ccc2OC)nc2cc(NC(=O)NC(C)(C)C)cc(C(=O)OC)c21", "37 nM"),
    ("COc1ccc([N+](=O)[O-])cc1CSc1nc2cc(NC(=O)CC(C)(C)C)ccc2n1C(C)C", "180 nM"),
    ("COc1ccc([N+](=O)[O-])cc1CSc1nc2cc(NC(=O)NC(C)(C)C)ccc2n1C(C)C", "62 nM"),
    ("CCCn1c(SCc2cc([N+](=O)[O-])ccc2OC)nc2cc(NC(=O)NC(C)(C)C)cc(C(=O)NCCc3ccccn3)c21", "27 nM"),
    ("COc1ccc([N+](=O)[O-])cc1CSc1nc2cc(NC(=O)C3CC3)ccc2n1C(C)C", "280 nM"),
]

Please give IC50 for each item listed below.
1. COc1ccc([N+](=O)[O-])cc1CSc1nc2cc(NC(=O)OC(C)(C)C)ccc2n1C(C)C
2. CCCn1c(SCc2cc([N+](=O)[O-])ccc2OC)nc2cc(NC(=O)NC(C)(C)C)cc(C(=O)NCc3ccccn3)c21

880 nM
31 nM

Please give IC50 for each item listed below.
1. CCCn1c(SCc2cc([N+](=O)[O-])ccc2OC)nc2cc(NC(=O)NC(C)(C)C)cc(C(=O)NC)c21
2. CCCn1c(SCc2cc([N+](=O)[O-])ccc2OC)nc2cc(NC(=O)NC(C)(C)C)cc(C(=O)NCc3ccccc3)c21
3. CCCn1c(SCc2cc([N+](=O)[O-])ccc2OC)nc2cc(NC(=O)NC(C)(C)C)ccc21
4. CNC(=O)Nc1ccc2c(c1)nc(SCc1cc([N+](=O)[O-])ccc1OC)n2C(C)C
5. CCCn1c(SCc2cc([N+](=O)[O-])ccc2OC)nc2cc(NC(=O)NC(C)(C)C)cc(C(=O)NCCc3cccnc3)c21

["41 nM", "120 nM", "18 nM", "3300 nM", "160 nM"]
